# System: Alopecurus
# ASSAY_EXPLANATION: Field test, postemergence herbicidal activity on Alopecurus in sulfonylurea-resistant rape
# Format: in vivo
# TEST_CONTEXT: Alopecurus, post-emergence, 672 h; sulfonylurea alone, 10 gram ai/ha, four weeks after the treatment; read-out: Injury of Alopecurus % Experimental value
This listing pairs molecules with measured pest or weed control at 10 g/ha.
Answer in %, number only, no unit symbol.

Answered examples (4):
COC(=O)c1sccc1S(=O)(=O)NC(=O)Nc1nc(C)nc(OC)n1 [thifensulfuron-methyl] | 0
COc1cc(OC)nc(NC(=O)NS(=O)(=O)Nc2ccccc2C(=O)C2CC2)n1 [cyclosulfamuron] | 0
COc1nc(C)nc(NC(=O)NS(=O)(=O)c2ccccc2OCCCl)n1 [triasulfuron] | 0
COc1cc(OC)nc(NC(=O)NS(=O)(=O)N(C)S(C)(=O)=O)n1 [amidosulfuron] | 0

q: Bench note: what pest or weed control at 10 g/ha did COc1nc(C)nc(NC(=O)NS(=O)(=O)c2ccccc2Cl)n1 [chlorsulfuron] show?
a: 54

q: Please do the same for COc1cc(OC)nc(NC(=O)NS(=O)(=O)c2ncccc2C(=O)N(C)C)n1 [nicosulfuron] as well.
a: 5

q: Proceed to COC(=O)c1ccccc1CS(=O)(=O)NC(=O)Nc1nc(OC)cc(OC)n1 [bensulfuron-methyl]
a: 0

q: Record: COC(=O)c1ccccc1S(=O)(=O)NC(=O)Nc1nc(C)nc(OC)n1 [metsulfuron-methyl]
a: 82
